organism: Rattus norvegicus; assay: To inhibit high affinity uptake of [3H]NE into nerve endings (synaptosomes) prepared from various regions of the rat brain.; type: functional
endpoint: Ki (nM)
Entry rule: numbers only, all in nM.

Example results:
compound | endpoint | quantitative-result
COC(=O)[C@@H]1C2C[C@H](O)[C@H](C[C@@H]1c1ccc(C)cc1)N2C | Ki | 154
COC(=O)[C@H]1C2[C@@H](O)C[C@H](C[C@H]1c1ccc(C)cc1)N2C (stereo in doubt; 14b) | Ki | 300

Problem: Can you share its Ki? I mean this compound: COC(=O)[C@@H]1C2C(O)C[C@H](C[C@@H]1c1ccc(C)cc1)N2C (stereo partly drawn)
Result: 44.7

====

species on record: Rattus norvegicus; assay: To inhibit high affinity uptake of [3H]5-HT into nerve endings (synaptosomes) prepared from various regions of the rat brain.; type: functional
pKi: −log10 of the molar value.
Threshold check on pKi: at or above 6 gives TRUE, strictly below gives FALSE.

Observe how each entry below is paired with its result.
compound | qualitative-label
CCCC1C2CC[C@H](C[C@@H]1c1ccc(C)cc1)N2C (some centres not stated) | TRUE
COC(=O)[C@H]1[C@@H](OC(=O)c2ccccc2)C[C@@H]2CC[C@H]1N2C | TRUE
COC(=O)[C@@H]1C2C[C@H](O)[C@H](C[C@@H]1c1ccc(C)cc1)N2C | FALSE
COC(=O)[C@H]1C2C(O)C[C@H](C[C@@H]1c1ccc(C)cc1)N2C (some centres not stated) | FALSE
COC(=O)[C@@H]1C2CC[C@H](C[C@@H]1c1ccccc1)N2C | TRUE

Problem: Has COC(=O)[C@@H]1C2C(O)C[C@H](C[C@@H]1c1ccc(C)cc1)N2C (some centres not stated) a recorded pKi greater than or equal to 6?
Result: TRUE

Problem: Also COC(=O)[C@H]1C2[C@@H](O)C[C@H](C[C@H]1c1ccc(C)cc1)N2C (stereo in doubt; 14b) , if possible.
Result: FALSE

====

Listed here: items and their measured pKi.
species on record: Rattus norvegicus; assay: To inhibit high affinity uptake of [3H]NE into nerve endings (synaptosomes) prepared from various regions of the rat brain.; type: functional
Friendly reminder that pKi comes from taking -log10 of the concentration in mol/L.

Example results:
compound | endpoint | quantitative-result
COC(=O)[C@@H]1C2CC[C@H](C[C@@H]1c1ccccc1)N2C | pKi | 7.43
CCCC1C2CC[C@H](C[C@@H]1c1ccc(C)cc1)N2C (stereo not given in full) | pKi | 8.20
COC(=O)[C@H]1C2[C@H](O)C[C@H](C[C@H]1c1ccc(C)cc1)N2C | pKi | 7.22

Problem: Can you share its pKi? I mean this compound: COC(=O)[C@H]1C2C(O)C[C@H](C[C@@H]1c1ccc(C)cc1)N2C (stereo not given in full)
Result: 6.00

Problem: Also COC(=O)[C@H]1[C@@H](OC(=O)c2ccccc2)C[C@@H]2CC[C@H]1N2C [COCAINE] , if possible.
Result: 6.97

====

biological target: Sodium-dependent dopamine transporter (Rattus norvegicus, UniProt P23977); assay: Inhibition of [3H]mazindol binding to dopamine transporter of rat striatal membranes.; type: cell membranes, Membrane
Sequence (P23977 whole entry): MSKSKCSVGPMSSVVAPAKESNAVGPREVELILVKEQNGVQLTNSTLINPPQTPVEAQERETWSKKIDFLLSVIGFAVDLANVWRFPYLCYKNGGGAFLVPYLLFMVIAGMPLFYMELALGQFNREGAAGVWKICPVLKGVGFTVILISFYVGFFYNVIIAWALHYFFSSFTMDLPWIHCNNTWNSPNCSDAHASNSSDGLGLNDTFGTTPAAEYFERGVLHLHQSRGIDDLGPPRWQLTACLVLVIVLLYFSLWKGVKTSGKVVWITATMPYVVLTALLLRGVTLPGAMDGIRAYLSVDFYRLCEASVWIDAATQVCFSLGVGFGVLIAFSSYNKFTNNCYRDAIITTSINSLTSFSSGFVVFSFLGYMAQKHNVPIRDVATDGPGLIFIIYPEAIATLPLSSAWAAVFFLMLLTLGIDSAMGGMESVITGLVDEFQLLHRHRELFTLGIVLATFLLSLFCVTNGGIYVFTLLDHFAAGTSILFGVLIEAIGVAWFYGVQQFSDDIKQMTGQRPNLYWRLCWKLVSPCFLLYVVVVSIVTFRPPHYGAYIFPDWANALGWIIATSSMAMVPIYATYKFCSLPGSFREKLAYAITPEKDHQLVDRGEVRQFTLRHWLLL
endpoint: Ki (µM)
Entry rule: numbers only, all in µM.

Example results:
molecule | Ki [µM]
COC(=O)[C@@H]1C2C(O)C[C@H](C[C@@H]1c1ccc(C)cc1)N2C (some centres not stated) | 0.0252
COC(=O)[C@H]1C2[C@@H](O)C[C@H](C[C@H]1c1ccc(C)cc1)N2C (stereo in doubt; 14b) | 1.4
COC(=O)[C@H]1C2C(O)C[C@H](C[C@@H]1c1ccc(C)cc1)N2C (some centres not stated) | 2.9

Problem: Can you share its Ki? I mean this molecule: COC(=O)[C@H]1C2[C@H](O)C[C@H](C[C@H]1c1ccc(C)cc1)N2C
Result: 0.135

Problem: Also COC(=O)[C@@H]1C2CC[C@H](C[C@@H]1c1ccccc1)N2C , if possible.
Result: 0.0894

Problem: Also COC(=O)[C@H]1C2[C@@H](O)C[C@H](C[C@H]1c1ccc(C)cc1)N2C (stereo in doubt; 19b) , if possible.
Result: 0.54

Problem: Also CCCC1C2CC[C@H](C[C@@H]1c1ccc(C)cc1)N2C (some centres not stated) , if possible.
Result: 0.021

Ref: ChEMBL document CHEMBL1133630
